Examples of binders with documented Kd follow.
# system.tested: T1, Human CD19-his protein (human, UniProt P15391 20-291)
# T1 construct: bought protein; also called recombinant human CD19-His; CD19 full-length protein; not shown: His tag
# T1 sequence (looked up): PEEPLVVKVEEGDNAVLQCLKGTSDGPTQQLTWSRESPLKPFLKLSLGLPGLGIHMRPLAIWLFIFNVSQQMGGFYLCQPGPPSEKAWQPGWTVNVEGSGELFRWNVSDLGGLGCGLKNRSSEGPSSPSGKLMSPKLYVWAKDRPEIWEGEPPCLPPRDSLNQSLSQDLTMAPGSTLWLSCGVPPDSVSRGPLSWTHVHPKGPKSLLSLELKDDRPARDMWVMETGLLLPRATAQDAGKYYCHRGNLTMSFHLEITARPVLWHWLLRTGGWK
# protocol.summary: SPR Biacore, Ab captured on Protein A, CD19-His analyte
measurement.type: Kd (nM)

>>> reading("F4.96.6 (antibody, human IgG1, V domains shown, human-murine chimeric antibody, human IgG1 constant) VH: EIQLQQSGPELVKPGASVKVSCKASGYAFSAYNIYWVKQSHGKSLEWIGYIDPYNSGTTYNQKFRGKATLTVDKSSNTAYMHLSSLTSEDSAVYYCTRDGDAMDYWGQGTSVTVSS VL: EILLTQSPAIIAASPGEKVTITCSASSGVIYMNWYQQKPGSSPKIWIYDVSTLASGVPARFSGSGSGTSFSFTINSMEAEDVATYYCQQRSSYPYTFGGGTKLEIK")
3.71
>>> reading("F3.133.14 (antibody, human IgG1, V domains shown, human-murine chimeric antibody, human IgG1 constant) VH: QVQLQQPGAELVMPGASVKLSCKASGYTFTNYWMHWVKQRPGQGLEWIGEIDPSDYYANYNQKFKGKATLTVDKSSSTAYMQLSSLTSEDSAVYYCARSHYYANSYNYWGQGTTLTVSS VL: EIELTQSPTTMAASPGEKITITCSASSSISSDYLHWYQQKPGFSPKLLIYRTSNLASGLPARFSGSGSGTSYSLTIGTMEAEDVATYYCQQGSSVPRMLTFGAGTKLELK")
0.974
>>> reading("F4.41.1 (antibody, human IgG1, V domains shown, human-murine chimeric antibody, human IgG1 constant) VH: QVQLQQSGAELVRPGTSVKVSCKASGYAFTNYLIEWVKQRPGQGLEWIGVINPGSGDTLYNEKFKGKATLTADKSSTTAYMQLSGLTSDVSAIYFCARSPPITTIVADYFDYWGQGTTLTVSS VL: DIQMTQTTSSLSASLGDRVTISCRASQDISNYLNWYQQKPDGTVKLLIYYTSRLHSGVPSRFSGSGSGADYSLTISNLEQEDIATYFCQQGKTLPYTFGGGTKLEIK")
13.4
